# Tested on: G401
# method-notes: standardised AUC of viability dose-response curve (72 h) (fraction (0-1)); higher = less growth inhibition (more resistant)
property-name: standardised AUC
Give a plain numeric answer without units written out.

Endpoint output: standardised AUC of `CNC(=O)c1cc(Oc2ccc(NC(=O)Nc3ccc(Cl)c(C(F)(F)F)c3)c(F)c2)ccn1` . Value?
0.874

Endpoint output: standardised AUC of `Cc1cc(C)c(/C=C2\C(=O)Nc3ccccc32)[nH]1` . Value?
0.983

Endpoint output: standardised AUC of `Cc1cc(Nc2ncnc3ccc(NC4=NC(C)(C)CO4)cc23)ccc1Oc1ccn2ncnc2c1` . Value?
0.979

Endpoint output: standardised AUC of `Cc1ccc(NC(=O)c2ccc(CN3CCN(C)CC3)cc2)cc1Nc1nc(-c2cccnc2)cs1` . Value?
0.848

Endpoint output: standardised AUC of `Cc1ccc(F)c(NC(=O)Nc2ccc(-c3cccc4[nH]nc(N)c34)cc2)c1` . Value?
0.948

Endpoint output: standardised AUC of `CO[C@H]1C[C@@H]2CC[C@@H](C)[C@@](O)(O2)C(=O)C(=O)N2CCCC[C@H]2C(=O)O[C@H]([C@H](C)C[C@@H]2CC[C@@H](OP(C)(C)=O)[C@H](OC)C2)CC(=O)[C@H](C)/C=C(\C)[C@@H](O)[C@@H](OC)C(=O)[C@H](C)C[C@H](C)/C=C/C=C/C=C/1C` . Value?
0.832

Endpoint output: standardised AUC of `C=CC(=O)Nc1cccc(Oc2nc(Nc3ccc(N4CCN(C)CC4)cc3)nc3ccsc23)c1` . Value?
0.964

Endpoint output: standardised AUC of `C[C@@H]1CCN(C(=O)CC#N)C[C@@H]1N(C)c1ncnc2[nH]ccc12` . Value?
0.994
